Attribution: patent US20140243292A1

# target of assay: human NCX1 (Homo sapiens, UniProt P32418)
# Construct: expressed in transfected cells
# assay method text: NCX1 inhibition, forward mode (Ca2+ efflux out of cells), FLIPR calcium assay
# Format: cell-based
# conditions: 10 μM, CHO cells stably expressing human NCX1, read-out: Inhibition in % at 10 μM, IC50 value not determined
quantity measured: inhibition at 10 µM
A bare number is not enough; add the unit after it.

# molecule, quantity measured, endpoint value
measured = [
    ("COC(=O)C(C)(C)NC(=O)c1cnc(Oc2ccc3c(c2)CC[C@@H](c2ccccc2)O3)s1 [Example 182]", "inhibition at 10 µM", "8%"),
    ("O=C(O)C1CN(C(=O)c2cnc(Oc3ccc4c(c3)CC[C@@H](c3ccccc3)O4)s2)CC1C(F)(F)F (stereo partly shown) [Example 243]", "inhibition at 10 µM", "19%"),
    ("O=C(NCCN1CCNC1=O)c1csc(Oc2ccc3c(c2)CC[C@@H](c2ccccc2)O3)n1 [Example 352]", "inhibition at 10 µM", "31%"),
]

Enquiry: What does the data say about its inhibition at 10 µM? Entry: Cc1ccccc1[C@H]1CCc2cc(Oc3ncc(C(=O)NCCO)s3)ccc2O1 [Example 325]
Return: 26%

====

# target of assay: human NCX1 (Homo sapiens)
# Construct: expressed in transfected cells
# assay method text: NCX1 inhibition, reverse mode (Ca2+ influx into cells), FLIPR Fluo-4 assay
# Format: cell-based
# conditions: inhibition of NCX1 in reverse mode (Ca2+ influx into cells); read-out: NCX1rv IC50
Counter-ions that a name gives are not always drawn.
pIC50 for assorted molecules
Quick note: pIC50 values are minus log10 of concentrations in mol/L.

Example entries and their recorded answers appear below.
# molecule, quantity measured, endpoint value
data = [
    ("COC(=O)CNC(=O)c1cnc(Oc2ccc3c(c2)CCC(c2ccccc2)O3)s1 (stereo not shown)", "pIC50", 6.70),
    ("CCc1ccccc1C1CCc2cc(Oc3ncc(C(=O)NCCc4c(C)noc4C)s3)ccc2O1 (stereo not shown)", "pIC50", 6.05),
    ("Cc1nc(S(=O)(=O)NCc2cnc(Oc3ccc4c(c3)CCC(c3ccccc3)O4)s2)cn1C (stereo not shown)", "pIC50", 6.40),
    ("N[C@@H](Cc1ccccc1)C(=O)NCc1cnc(Oc2ccc3c(c2)CC[C@@H](c2ccccc2)O3)s1", "pIC50", 5.72),
    ("O=C(CN1CCCC1=O)NCc1cnc(Oc2ccc3c(c2)CCC(c2ccccc2)O3)s1 (stereo not shown)", "pIC50", 6.30),
    ("NC[C@@H]1[C@H]2CC[C@H](C2)[C@H]1NC(=O)c1cnc(Oc2ccc3c(c2)CC[C@@H](c2ccccc2)O3)s1", "pIC50", 6.00),
]

Enquiry: Tell me reported pIC50 for O=C(NCc1ccno1)c1cnc(Oc2ccc3c(c2)CCC(c2ccc(Cl)nc2)O3)s1 (stereo not shown) [compound 277, hydrochloride] , tested with human NCX1 (Homo sapiens).
Return: 5.70

====

log10(IC50) for assorted compounds
# target of assay: human NCX1 (Homo sapiens, UniProt P32418)
# Construct: expressed in transfected cells
# assay method text: NCX1 inhibition, reverse mode (Ca2+ influx into cells), FLIPR Fluo-4 assay
# Format: cell-based
# conditions: inhibition of NCX1 in reverse mode (Ca2+ influx into cells); read-out: NCX1rv IC50
Short version: log10 scale, IC50, nM.

Example entries and their recorded answers appear below.
# compound, log10(IC50)
records = [
    ("CCOC(=O)[C@@H]1CCCC[C@@H]1NC(=O)c1cnc(Oc2ccc3c(c2)CC[C@@H](c2ccccc2)O3)s1 [Example 189]", 2.78),
    ("CCn1nccc1CNC(=O)c1cnc(Oc2cc3c(cc2C)OC(c2ccccc2C)CC3)s1 (stereo not drawn) [compound 359]", 3.18),
    ("CCOC(=O)[C@H](Cc1ccccc1)NC(=O)c1cnc(Oc2ccc3c(c2)CCC(c2cccnc2)O3)s1 (stereo partly drawn) [compound 262]", 2.90),
    ("Cc1nn(C)c(C)c1C(=O)NCc1cnc(Oc2ccc3c(c2)CCC(c2ccccc2)O3)s1 (stereo not drawn) [compound 67]", 2.48),
]

Enquiry: What does the data say about its log10(IC50)? Entry: Cc1nc2ccc(S(=O)(=O)NCc3cnc(Oc4ccc5c(c4)CCC(c4ccccc4)O5)s3)cc2s1 (stereo not drawn) [compound 124]
Return: 2.95
